measured.target: ~100 representative kinases (Homo sapiens, UniProt Q96L34)
Construct: Recombinant protein kinase domains with a concentration of 2 μM
Sequence (Q96L34 whole entry, the tested form may be a part): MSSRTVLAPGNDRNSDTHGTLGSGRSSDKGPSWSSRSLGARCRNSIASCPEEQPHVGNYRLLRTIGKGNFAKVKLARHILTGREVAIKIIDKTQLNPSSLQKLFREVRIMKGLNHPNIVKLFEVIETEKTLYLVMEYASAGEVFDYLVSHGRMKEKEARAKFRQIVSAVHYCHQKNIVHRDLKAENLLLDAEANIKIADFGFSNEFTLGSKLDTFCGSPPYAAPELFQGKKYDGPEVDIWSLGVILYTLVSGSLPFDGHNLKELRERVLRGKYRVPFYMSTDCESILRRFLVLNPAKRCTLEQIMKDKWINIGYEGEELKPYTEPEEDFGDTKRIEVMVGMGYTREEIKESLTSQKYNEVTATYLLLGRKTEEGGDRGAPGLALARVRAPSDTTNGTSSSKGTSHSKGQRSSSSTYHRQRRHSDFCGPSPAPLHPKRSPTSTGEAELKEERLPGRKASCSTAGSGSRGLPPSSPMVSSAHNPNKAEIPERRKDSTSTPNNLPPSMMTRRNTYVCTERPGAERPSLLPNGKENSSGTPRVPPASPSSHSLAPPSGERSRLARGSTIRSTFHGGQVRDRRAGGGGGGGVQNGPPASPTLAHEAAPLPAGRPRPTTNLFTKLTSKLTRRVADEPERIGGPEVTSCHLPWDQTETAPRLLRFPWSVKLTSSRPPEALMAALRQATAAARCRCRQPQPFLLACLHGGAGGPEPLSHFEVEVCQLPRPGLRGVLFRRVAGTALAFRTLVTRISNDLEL
test.description: DSF 100 kinase selectivity screen;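 note: compound tested at 20 µM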
Type: binding
recorded.conditions: protein MARK4; average of three replicates
Mark class 1 for dTm under 0.4 K, class 0 if at or over.

> print(dat)
                                    compound  classification
 1  Cc1ccc(-n2nc(C(C)(C)C)cc2NC(=O)Nc2cccc(-c3c[nH]c4nc(Cl)nc(N5CCOCC5)c34)c2)cc1         class 1
 2  O=C(Nc1ccc(F)cc1)C1(C(=O)Nc2cccc(-c3c[nH]c4ncnc(N5CCOCC5)c34)c2)CC1         class 0
 3  Cc1ccc(NC(=O)C2(C(=O)Nc3cccc(-c4c[nH]c5ncnc(N6CCOCC6)c45)c3)CC2)cc1         class 0
 4  O=C(Nc1cccc(-c2c[nH]c3ncnc(N4CCOCC4)c23)c1)C1(C(=O)Nc2ccc(F)c(F)c2)CC1         class 0
 5  Cc1ccc(C(=O)Nc2ccc(CN3CCN(C)CC3)c(C(F)(F)F)c2)cc1C#Cc1c[nH]c2ncnc(N3CCOCC3)c12         class 0
 6  O=C(Nc1cccc(-c2c[nH]c3ncnc(N4CCOCC4)c23)c1)C1(C(=O)Nc2ccc(F)c(Br)c2)CC1         class 0
 7  CCNc1nc(Nc2cc(F)c(C(=O)N3CCOCC3)cc2OC)ncc1C(F)(F)F         class 1
 8  CC(C)(C)c1cc(NC(=O)Nc2cccc(-c3c[nH]c4ncnc(N5CCOCC5)c34)c2)n(-c2ccc3ncccc3c2)n1         class 0
 9  Cc1ccc(C(=O)Nc2ccc(CN3CCN(C)CC3)c(C(F)(F)F)c2)cc1C#Cc1cnc2cccnn12 [Ponatinib, reference compound]         class 1
10  Cn1cc(-c2c[nH]c3ncnc(N4CCOCC4)c23)cc1C#N         class 0
11  O=C(Nc1cccc(-c2c[nH]c3ncnc(N4CCOCC4)c23)c1)C1(C(=O)Nc2ccc(F)c(Cl)c2)CC1         class 0
12  COc1cc(C(=O)N2CCOCC2)c(F)cc1Nc1nc(N(C)C)c2c(Cl)c[nH]c2n1         class 1
13  O=C(Nc1ccc(Cl)cc1)C1(C(=O)Nc2cccc(-c3c[nH]c4ncnc(N5CCOCC5)c34)c2)CC1         class 0
14  Cc1cc(NC(=O)C2(C(=O)Nc3cccc(-c4c[nH]c5ncnc(N6CCOCC6)c45)c3)CC2)ccc1F         class 0
15  CC(=O)N1CCN(c2nc(Cl)nc3[nH]cc(-c4cccc(NC(=O)Nc5cc(C(C)(C)C)nn5-c5ccc(C)cc5)c4)c23)CC1         class 1
16  O=C(Nc1cccc(-c2c[nH]c3ncnc(N4CCOCC4)c23)c1)C1(C(=O)Nc2cccc3c2CCC3)CC1         class 1
17  O=C(Nc1cccc(-c2c[nH]c3ncnc(N4CCOCC4)c23)c1)C1(C(=O)Nc2cc(Br)c(F)cc2F)CC1         class 1
18  O=C(Nc1cccc(-c2c[nH]c3ncnc(N4CCOCC4)c23)c1)c1cccn(-c2ccc(F)cc2)c1=O         class 0
19  Cc1cc(F)ccc1NC(=O)C1(C(=O)Nc2cccc(-c3c[nH]c4ncnc(N5CCOCC5)c34)c2)CC1         class 0
20  Cc1ccc(C(=O)Nc2ccc(CN3CCN(C)CC3)c(C(F)(F)F)c2)cc1C#Cc1cnc2[nH]ncc2c1 [GZD-824, reference compound]         class 0
21  O=C(Nc1ccccc1)C1(C(=O)Nc2cccc(-c3c[nH]c4ncnc(N5CCOCC5)c34)c2)CC1         class 0
22  CCSc1nc(NC)c2c(-c3cccc(NC(=O)Nc4cc(C(C)(C)C)nn4-c4ccc(C)cc4)c3)c[nH]c2n1         class 1
23  COc1cc(S(C)(=O)=O)ccc1Nc1nc(N(C)C)c2c(Cl)c[nH]c2n1         class 0

====

measured.target: ~100 representative kinases (Homo sapiens, UniProt P54762)
Construct: Recombinant protein kinase domains with a concentration of 2 μM
Sequence (P54762 18-984): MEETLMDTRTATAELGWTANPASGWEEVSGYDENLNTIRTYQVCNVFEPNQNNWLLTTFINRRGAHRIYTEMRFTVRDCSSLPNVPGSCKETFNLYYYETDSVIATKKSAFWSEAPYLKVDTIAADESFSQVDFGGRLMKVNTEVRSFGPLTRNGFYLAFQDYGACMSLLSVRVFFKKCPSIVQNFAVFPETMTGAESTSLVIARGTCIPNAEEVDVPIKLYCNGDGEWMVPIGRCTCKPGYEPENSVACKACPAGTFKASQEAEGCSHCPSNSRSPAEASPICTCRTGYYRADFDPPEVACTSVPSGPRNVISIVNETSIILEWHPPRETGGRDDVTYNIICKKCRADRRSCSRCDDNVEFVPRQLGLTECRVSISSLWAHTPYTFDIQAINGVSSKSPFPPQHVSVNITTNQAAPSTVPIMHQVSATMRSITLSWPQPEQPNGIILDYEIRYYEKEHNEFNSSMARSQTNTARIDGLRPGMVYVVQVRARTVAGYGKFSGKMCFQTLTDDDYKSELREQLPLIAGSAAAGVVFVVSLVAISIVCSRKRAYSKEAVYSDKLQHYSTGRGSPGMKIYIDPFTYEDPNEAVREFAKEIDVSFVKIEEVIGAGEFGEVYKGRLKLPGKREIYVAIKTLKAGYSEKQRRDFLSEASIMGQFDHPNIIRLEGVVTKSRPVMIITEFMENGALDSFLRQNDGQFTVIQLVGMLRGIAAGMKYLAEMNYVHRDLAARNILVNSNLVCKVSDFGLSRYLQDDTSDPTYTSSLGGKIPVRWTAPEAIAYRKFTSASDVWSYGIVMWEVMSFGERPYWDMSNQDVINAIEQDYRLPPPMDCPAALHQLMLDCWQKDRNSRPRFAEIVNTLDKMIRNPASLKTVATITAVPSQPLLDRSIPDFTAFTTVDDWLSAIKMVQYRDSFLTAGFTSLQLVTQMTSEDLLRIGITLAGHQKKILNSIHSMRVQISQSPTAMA
test.description: DSF 100 kinase selectivity screen;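 note: compound tested at 20 µM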
Type: binding
recorded.conditions: Protein EPHB1; average of three replicates
measurement.kind: dTm (K)

> print(dat)
                                   molecule  measured.value
1  Cc1cc(F)ccc1NC(=O)C1(C(=O)Nc2cccc(-c3c[nH]c4ncnc(N5CCOCC5)c34)c2)CC1 [Compound 24]            1.63
2  COc1ccc(NC(=O)C2(C(=O)Nc3cccc(-c4c[nH]c5ncnc(N6CCOCC6)c45)c3)CC2)cc1 [Compound 16]            0.79
3  COc1cc(S(C)(=O)=O)ccc1Nc1nc(N(C)C)c2c(Cl)c[nH]c2n1 [Compound 37]           -0.51
4  CCNc1nc(Nc2cc(F)c(C(=O)N3CCOCC3)cc2OC)ncc1C(F)(F)F [GNE-7915]            0.07

====

measured.target: ~100 representative kinases (Homo sapiens, UniProt O96017)
Construct: Recombinant protein kinase domains with a concentration of 2 μM
Sequence (O96017 whole entry, the tested form may be a part): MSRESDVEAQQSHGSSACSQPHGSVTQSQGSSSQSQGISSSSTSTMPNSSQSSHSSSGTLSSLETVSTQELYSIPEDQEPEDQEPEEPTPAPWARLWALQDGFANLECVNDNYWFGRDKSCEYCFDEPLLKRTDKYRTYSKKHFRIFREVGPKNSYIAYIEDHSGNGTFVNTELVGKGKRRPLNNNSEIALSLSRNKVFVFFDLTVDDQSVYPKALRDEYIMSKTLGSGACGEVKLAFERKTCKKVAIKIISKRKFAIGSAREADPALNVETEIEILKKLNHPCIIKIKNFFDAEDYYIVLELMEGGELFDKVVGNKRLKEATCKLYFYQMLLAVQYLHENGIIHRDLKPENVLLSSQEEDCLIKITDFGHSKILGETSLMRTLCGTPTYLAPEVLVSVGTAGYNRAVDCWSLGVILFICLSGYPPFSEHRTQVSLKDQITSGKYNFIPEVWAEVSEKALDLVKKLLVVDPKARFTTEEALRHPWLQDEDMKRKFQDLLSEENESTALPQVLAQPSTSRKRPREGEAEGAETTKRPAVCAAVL
test.description: DSF 100 kinase selectivity screen;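 note: compound tested at 20 µM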
Assay type: binding
recorded.conditions: Protein CHEK2; average of three replicates
measurement.kind: log10 of dTm (log10 of the value in K)

> print(dat)
                                   compound                           measured.target  measured.value
1  CC(=O)N1CCN(c2nc(Cl)nc3[nH]cc(-c4cccc(NC(=O)Nc5cc(C(C)(C)C)nn5-c5ccc(C)cc5)c4)c23)CC1 [Compound 31]  ~100 representative kinases (Homo sapiens, UniProt O96017)            0.75
2  O=C(Nc1cccc(-c2c[nH]c3ncnc(N4CCOCC4)c23)c1)C1(C(=O)Nc2cccc3c2CCC3)CC1 [Compound 11]  ~100 representative kinases (Homo sapiens, UniProt O96017)            0.22
3  CNC(=O)c1cc(Oc2ccc(NC(=O)Nc3cc(C(C)(C)C)nn3-c3ccc4ncccc4c3)c(F)c2)ccn1 [Rebastinib, reference compound]  ~100 representative kinases (Homo sapiens, UniProt O96017)            1.02
4  Cn1cc(-c2c[nH]c3ncnc(N4CCOCC4)c23)cc1C#N [PFE-360]  ~100 representative kinases (Homo sapiens, UniProt O96017)            0.51
5  O=C(Nc1cccc(-c2c[nH]c3ncnc(N4CCOCC4)c23)c1)C1(C(=O)Nc2ccc(F)c(Cl)c2)CC1 [Compound 18]  ~100 representative kinases (Homo sapiens, UniProt O96017)            0.73
6  Cc1cc(NC(=O)C2(C(=O)Nc3ccc(F)cc3)CC2)cc(-c2c[nH]c3ncnc(N4CCOCC4)c23)c1 [Compound 6]  ~100 representative kinases (Homo sapiens, UniProt O96017)            0.09
7  O=C(Nc1cccc(-c2c[nH]c3ncnc(N4CCOCC4)c23)c1)C1(C(=O)Nc2cc(Br)c(F)cc2F)CC1 [Compound 25]  ~100 representative kinases (Homo sapiens, UniProt O96017)            0.31
8  CCNc1nc(Nc2cc(F)c(C(=O)N3CCOCC3)cc2OC)ncc1C(F)(F)F [GNE-7915]  ~100 representative kinases (Homo sapiens, UniProt O96017)           -0.14
9  Cc1ccc(C(=O)Nc2ccc(CN3CCN(C)CC3)c(C(F)(F)F)c2)cc1C#Cc1c[nH]c2ncnc(N3CCOCC3)c12 [Compound 1]  ~100 representative kinases (Homo sapiens, UniProt O96017)            1.19

====

measured.target: ~100 representative kinases (Homo sapiens)
Construct: Recombinant protein kinase domains with a concentration of 2 μM
test.description: DSF 100 kinase selectivity screen;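 note: compound tested at 20 µM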
Assay type: binding
recorded.conditions: Protein STK10; DSF; average of three replicates
We begin with a simple list: items and their reported dTm.
measurement.kind: dTm (K)

> print(dat)
                            substance.smiles                           measured.target  measured.value
 1  O=C(Nc1cc(F)cc(Br)c1)C1(C(=O)Nc2cccc(-c3c[nH]c4ncnc(N5CCOCC5)c34)c2)CC1  ~100 representative kinases (Homo sapiens)           10.11
 2  O=C(Nc1ccc(Cl)cc1)C1(C(=O)Nc2cccc(-c3c[nH]c4ncnc(N5CCOCC5)c34)c2)CC1  ~100 representative kinases (Homo sapiens)           14.64
 3  O=C(Nc1cccc(-c2c[nH]c3ncnc(N4CCOCC4)c23)c1)C1(C(=O)Nc2ccc(F)c(Br)c2F)CC1  ~100 representative kinases (Homo sapiens)           12.57
 4  O=C(Nc1cccc(-c2c[nH]c3ncnc(N4CCOCC4)c23)c1)C1(C(=O)Nc2ccc(F)c(F)c2)CC1  ~100 representative kinases (Homo sapiens)           13.86
 5  O=C(Nc1ccc(F)cc1)C1(C(=O)Nc2cccc(-c3c[nH]c4ncnc(N5CCOCC5)c34)c2)CC1  ~100 representative kinases (Homo sapiens)           12.98
 6  Cn1cc(-c2c[nH]c3ncnc(N4CCOCC4)c23)cc1C#N  ~100 representative kinases (Homo sapiens)            7.58
 7  Cc1ccc(NC(=O)C2(C(=O)Nc3cccc(-c4c[nH]c5ncnc(N6CCOCC6)c45)c3)CC2)cc1  ~100 representative kinases (Homo sapiens)           11.44
 8  CC(C)(C)c1cc(NC(=O)Nc2cccc(-c3c[nH]c4ncnc(N5CCOCC5)c34)c2)n(-c2ccc3ncccc3c2)n1  ~100 representative kinases (Homo sapiens)           20.14
 9  O=C(Nc1cccc(-c2c[nH]c3ncnc(N4CCOCC4)c23)c1)C1(C(=O)Nc2cccc3c2CCC3)CC1  ~100 representative kinases (Homo sapiens)           10.54
10  CCc1ccc(NC(=O)C2(C(=O)Nc3cccc(-c4c[nH]c5ncnc(N6CCOCC6)c45)c3)CC2)cc1  ~100 representative kinases (Homo sapiens)           12.89
11  Cc1ccc(C(=O)Nc2ccc(CN3CCN(C)CC3)c(C(F)(F)F)c2)cc1C#Cc1c[nH]c2ncnc(N3CCOCC3)c12  ~100 representative kinases (Homo sapiens)           14.26
12  Cc1ccc(-n2nc(C(C)(C)C)cc2NC(=O)Nc2cccc(-c3c[nH]c4ncnc(N5CCOCC5)c34)c2)cc1  ~100 representative kinases (Homo sapiens)           20.37
